# EXPERIMENT: qHTS RealTime-Glo MT Cell Viability Assay in HepG2 cells - 8 hour (AID 1224873); also: nearly all actives have a fitted effect of over 55% in size
# APPLIED_CONDITIONS: RealTime-Glo luminescence; series mostly up to 76.8 µM
Inconclusive results are not listed. The source made the active and inactive calls. Calls follow the shape of the dose curve; as a rule, active = well fitted cell-killing curve with a large enough effect in the repeat runs; inconclusive = weak or mixed curves; inactive = flat fitted curve, though single readings scatter.
Classes used: 1 for active, -1 for inactive

> print(dat)
                                    compound  cat
 1                              CC(=O)C(=O)O   -1
 2  CN(N=O)C(=O)N[C@@H]1[C@@H](O)[C@H](O)[C@@H](CO)O[C@@H]1O   -1
 3     O=C(O)CC(O)C(=O)O (centres undefined)   -1
 4  COc1ccc2cc(S(=O)(=O)N[C@H](CC(=O)N[C@H](Cc3ccc(CN4[C@H](C)CCC[C@@H]4C)cc3)C(=O)N(C)C(C)C)c3ccc4c(c3)OCO4)ccc2c1    1
 5  CN1[C@@H]2CC(OC(=O)[C@H](CO)c3ccccc3)C[C@H]1[C@@H]1O[C@@H]12 (some centres undefined)   -1
 6           O=C1O[C@H]([C@@H](O)CO)C(O)=C1O   -1
 7               CN(C)C(=O)Nc1ccc(Cl)c(Cl)c1   -1
 8           CCCCNC(=O)NS(=O)(=O)c1ccc(C)cc1   -1
 9                   Cc1ncc([N+](=O)[O-])n1C   -1
10                 CNNCc1ccc(C(=O)NC(C)C)cc1   -1
11  O=C1OC2(c3ccccc31)c1cc(Br)c(O)c(Br)c1Oc1c2cc(Br)c(O)c1Br   -1
12     CN1CCc2cccc3c2[C@H]1Cc1ccc(O)c(O)c1-3    1
13                                 CCOC(N)=O   -1
14                  CCCC[P+](CCCC)(CCCC)CCCC   -1
15                            NC(=O)c1cccnc1   -1
16                                 NC1CCCCC1   -1
17  CCCCC1(COC(=O)CCC(=O)O)C(=O)N(c2ccccc2)N(c2ccccc2)C1=O   -1
18                 Cc1ncc([N+](=O)[O-])n1CCO   -1
19                  Nc1ccc([N+](=O)[O-])cc1O   -1
20                      CN1CCC[C@H]1c1cccnc1   -1
21  C1=CC2C3C=CC(C3)C2C1 (centres undefined)   -1
22                CS(=O)(=O)OCCCCOS(C)(=O)=O   -1
23  CCCCCCCC(=O)OCC(COC(=O)CCCCCCC)OC(=O)CCCCCCC   -1
24                               NS(=O)(=O)O   -1

====

# EXPERIMENT: qHTS RealTime-Glo MT Cell Viability Assay in HepG2 cells - 16 hour (AID 1224885); also: nearly all actives have a fitted effect of over 50% in size
# APPLIED_CONDITIONS: RealTime-Glo luminescence; series mostly up to 76.8 µM
Records with an inconclusive call do not appear. Activity calls are given as the source filed them. Calls follow the shape of the dose curve; as a rule, active = well fitted cell-killing curve with a large enough effect in the repeat runs; inconclusive = weak or mixed curves; inactive = flat fitted curve, though single readings scatter.
Outcome codes: True = active, False = inactive

> print(dat)
                                    compound    cat
 1                     CC12CCC(CC1)C(C)(C)O2  False
 2  Cc1c(C(=O)O)c(O)cc2c1C(=O)c1c(O)c([C@@H]3O[C@H](CO)[C@@H](O)[C@H](O)[C@H]3O)c(O)c(O)c1C2=O  False
 3                      CN1CCC[C@H]1c1cccnc1  False
 4                 CNNCc1ccc(C(=O)NC(C)C)cc1  False
 5  CCCCCCCC(=O)OCC(COC(=O)CCCCCCC)OC(=O)CCCCCCC  False
 6  CC(=O)CC(c1ccccc1)c1c(O)c2ccccc2oc1=O (stereo unspecified)  False
 7        O=C(Nc1ncc([N+](=O)[O-])s1)c1cccs1  False
 8           O=C1O[C@H]([C@@H](O)CO)C(O)=C1O  False
 9                            CC(=O)CCC(=O)O  False
10                 CC(O)(P(=O)(O)O)P(=O)(O)O  False
11                            COc1cccc(O)c1O  False
12                              CC(=O)C(=O)O  False
13                            O=C(O)c1ccccc1  False
14                                 CCOC(N)=O  False
15                     CN(C)C(=S)SC(=S)N(C)C   True
16           CCCCNC(=O)NS(=O)(=O)c1ccc(C)cc1  False
17                      CCOc1ccc(NC(C)=O)cc1  False
18                            NC(=O)c1cccnc1  False
19  CCN(Cc1c(F)cccc1Cl)c1c([N+](=O)[O-])cc(C(F)(F)F)cc1[N+](=O)[O-]  False
20         O=C1NC(=O)C(c2ccccc2)(c2ccccc2)N1  False
21    O=c1[nH]cnc2c1ncn2[C@H]1CC[C@@H](CO)O1  False
